Entry source: patent US20230110188A1

Recorded amplitude of prelead after presaturating MuSK (RU) for the following binders
# system.tested: T1, Human MuSK (R&D Systems, cat. 10189-MK, histidine tag) (human, UniProt O15146 24-495)
# T1 construct: Bought protein; also called human monomeric MuSK-6xhis; not shown: histidine tag (6xhis)
# T1 sequence: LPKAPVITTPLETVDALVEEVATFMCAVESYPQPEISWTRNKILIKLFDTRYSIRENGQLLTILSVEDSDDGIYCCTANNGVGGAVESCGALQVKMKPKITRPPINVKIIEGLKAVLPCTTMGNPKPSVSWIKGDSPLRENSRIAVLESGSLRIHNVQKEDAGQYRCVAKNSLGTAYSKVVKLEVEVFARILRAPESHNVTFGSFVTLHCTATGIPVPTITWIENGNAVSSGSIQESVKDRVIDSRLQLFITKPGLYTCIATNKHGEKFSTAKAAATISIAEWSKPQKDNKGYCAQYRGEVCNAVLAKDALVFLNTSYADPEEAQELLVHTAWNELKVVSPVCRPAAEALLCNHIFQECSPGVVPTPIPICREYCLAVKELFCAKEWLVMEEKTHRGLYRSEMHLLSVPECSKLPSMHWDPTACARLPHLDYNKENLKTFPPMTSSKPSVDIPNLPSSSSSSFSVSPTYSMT
# experimental.details: SPR (Biacore), MuSK-coated chip presaturated with 500 nM 3D10a (competitor)
Write the answer as a number in RU, unit excluded.

binder	experimental.result
3B5 (antibody, V domains shown, also called 3B5wt) VH: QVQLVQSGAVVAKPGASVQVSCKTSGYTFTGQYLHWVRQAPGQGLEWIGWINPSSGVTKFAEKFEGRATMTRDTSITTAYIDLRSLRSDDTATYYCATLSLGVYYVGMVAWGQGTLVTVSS VL: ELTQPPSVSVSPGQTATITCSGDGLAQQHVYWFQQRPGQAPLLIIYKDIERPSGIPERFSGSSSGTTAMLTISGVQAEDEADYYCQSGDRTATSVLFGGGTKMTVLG	2260
3F6c (antibody, human IgG1, kappa, L234A L235A, V domains shown) VH: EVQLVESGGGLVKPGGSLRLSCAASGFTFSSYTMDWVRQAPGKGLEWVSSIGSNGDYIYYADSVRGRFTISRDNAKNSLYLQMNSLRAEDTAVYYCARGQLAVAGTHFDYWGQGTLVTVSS VL: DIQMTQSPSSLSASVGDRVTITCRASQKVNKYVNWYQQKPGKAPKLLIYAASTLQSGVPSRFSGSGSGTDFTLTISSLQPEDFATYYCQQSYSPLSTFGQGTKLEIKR	26

Query: # query: amplitude of prelead after presaturating MuSK (RU) of entry 4D3 (antibody, human IgG1, kappa, L234A L235A, V domains shown) VH: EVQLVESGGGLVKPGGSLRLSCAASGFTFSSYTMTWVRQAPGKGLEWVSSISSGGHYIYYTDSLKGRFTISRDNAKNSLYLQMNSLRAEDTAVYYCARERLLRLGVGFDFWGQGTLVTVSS VL: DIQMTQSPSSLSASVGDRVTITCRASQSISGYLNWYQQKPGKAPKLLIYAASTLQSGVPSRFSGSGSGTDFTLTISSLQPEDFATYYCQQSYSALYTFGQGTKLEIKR
Result: 42

Query: # query: amplitude of prelead after presaturating MuSK (RU) of entry 3D9b (antibody, human IgG1, kappa, L234A L235A, V domains shown) VH: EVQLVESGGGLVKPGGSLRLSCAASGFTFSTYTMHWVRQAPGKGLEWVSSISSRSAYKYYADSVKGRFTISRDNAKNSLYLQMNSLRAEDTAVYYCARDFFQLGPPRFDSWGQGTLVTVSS VL: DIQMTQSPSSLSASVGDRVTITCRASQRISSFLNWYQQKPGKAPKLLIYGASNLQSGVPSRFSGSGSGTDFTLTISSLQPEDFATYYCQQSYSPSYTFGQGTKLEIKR
Result: 169

Query: # query: amplitude of prelead after presaturating MuSK (RU) of entry 3D10a (antibody, human IgG1, kappa, L234A L235A, V domains shown) VH: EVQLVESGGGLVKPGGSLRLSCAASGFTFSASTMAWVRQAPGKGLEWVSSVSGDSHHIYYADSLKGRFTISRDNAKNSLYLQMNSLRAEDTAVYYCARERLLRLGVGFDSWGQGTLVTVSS VL: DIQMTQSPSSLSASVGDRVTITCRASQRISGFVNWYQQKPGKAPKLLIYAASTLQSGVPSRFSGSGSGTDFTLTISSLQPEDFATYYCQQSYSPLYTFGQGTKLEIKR
Result: 56
